# System: L132
# Test Method Notes: MTT cytotoxicity assay, L132 lung
# Format: cell-based
# Condition Info: Homo sapiens, 4 mM, read-out: Percent cytotoxicity
cytotoxicity at 4000 µM overview
Give a bare numeral; the unit % is implied.

CCOC(=O)C1CCC(=O)N1C(OC(C)=O)C(C)=O (stereo not shown) [MGC-8]
25
CC(=O)OC(C(C)=O)N1C(=O)CCC1C(=O)OCc1ccccc1 (stereo not shown) [MGC-6]
53.9
COC(=O)C1CCC(=O)N1C(OC(C)=O)C(C)=O (stereo not shown) [MGC-4]
0
CC(=O)C(O)N1C(=O)CCC1C(=O)OCc1ccccc1 (stereo not shown) [MGC-3]
45.8

INPUT: Can you share its cytotoxicity at 4000 µM? I mean this molecule: CCCCOC(=O)C1CCC(=O)N1C(OC(C)=O)C(C)=O (stereo not shown) [MGC-5]
OUTPUT: 57.8

INPUT: Which cytotoxicity at 4000 µM is reported for this molecule? CCOC(=O)C1CCC(=O)N1C(O)C(C)=O (stereo not shown) [MGC-7]
OUTPUT: 0

INPUT: What value of cytotoxicity at 4000 µM has been recorded for this entry: CCCCOC(=O)C1CCC(=O)N1C(O)C(C)=O (stereo not shown) [MGC-2]
OUTPUT: 62.9

====

# Test system: PA 1
# Test Method Notes: MTT cytotoxicity assay, PA 1 ovary
# Format: cell-based
# Condition Info: Homo sapiens; PA 1 Ovary, 2.5 mM; read-out: Percent cytotoxicity
Response field label takes condition met when cytotoxicity at 2500 µM is strictly below 60% and condition not met in all other cases.

CC(=O)C(O)N1C(=O)CCC1C(=O)OCc1ccccc1 (stereo not shown)
condition not met
COC(=O)C1CCC(=O)N1C(OC(C)=O)C(C)=O (stereo not shown)
condition not met

INPUT: Quick check: cytotoxicity at 2500 µM of CCCCOC(=O)C1CCC(=O)N1C(O)C(C)=O (stereo not shown) under 60%?
OUTPUT: condition met

INPUT: Field: below-cutoff. Rule: recorded cytotoxicity at 2500 µM strictly less than 60%. Subject: CCOC(=O)C1CCC(=O)N1C(OC(C)=O)C(C)=O (stereo not shown)
OUTPUT: condition met

INPUT: API: query returns whether the compound falls strictly under 60% in cytotoxicity at 2500 µM. Query: CC(=O)OC(C(C)=O)N1C(=O)CCC1C(=O)OCc1ccccc1 (stereo not shown)
OUTPUT: condition not met

====

# Tested on: MCF7
# Test Method Notes: MTT cytotoxicity assay, MCF7 breast
# Assay type: cell-based
# Condition Info: Homo sapiens; MCF7 breast, 5 mM; read-out: Percent cytotoxicity
Recorded Endpoint: cytotoxicity at 5000 µM (%)
Return type: number; implicit unit %.

Before answering, review these 6 worked examples.
CC(=O)OC(C(C)=O)N1C(=O)CCC1C(=O)OCc1ccccc1 (stereo not shown) [MGC-6]
13.9
CCCCOC(=O)C1CCC(=O)N1C(OC(C)=O)C(C)=O (stereo not shown) [MGC-5]
51.9
CCCCOC(=O)C1CCC(=O)N1C(O)C(C)=O (stereo not shown) [MGC-2]
67.9
CCOC(=O)C1CCC(=O)N1C(OC(C)=O)C(C)=O (stereo not shown) [MGC-8]
73
CCOC(=O)C1CCC(=O)N1C(O)C(C)=O (stereo not shown) [MGC-7]
85
CC(=O)C(O)N1C(=O)CCC1C(=O)OCc1ccccc1 (stereo not shown) [MGC-3]
2.7

INPUT: For the compound COC(=O)C1CCC(=O)N1C(OC(C)=O)C(C)=O (stereo not shown) [MGC-4] , what cytotoxicity at 5000 µM is on record?
OUTPUT: 23.8

====

# System: PTC
# Test Method Notes: MTT cytotoxicity assay, PTC colon
# Format: cell-based
# Condition Info: Homo sapiens, 1.0 mM, read-out: Percent cytotoxicity
Note to self: values exactly at 30% are met. So cytotoxicity at 1000 µM at or above 30% is met, below is not met.

Take a look at these entries with their results.
CCOC(=O)C1CCC(=O)N1C(O)C(C)=O (stereo not shown)
met
COC(=O)C1CCC(=O)N1C(OC(C)=O)C(C)=O (stereo not shown)
not met
CC(=O)OC(C(C)=O)N1C(=O)CCC1C(=O)OCc1ccccc1 (stereo not shown)
met
CC(=O)C(O)N1C(=O)CCC1C(=O)OCc1ccccc1 (stereo not shown)
not met

INPUT: API: above_or_equal(metric=cytotoxicity at 1000 µM, cutoff=30%) for item CCCCOC(=O)C1CCC(=O)N1C(OC(C)=O)C(C)=O (stereo not shown)
OUTPUT: not met

INPUT: Is it the case that CCOC(=O)C1CCC(=O)N1C(OC(C)=O)C(C)=O (stereo not shown) has cytotoxicity at 1000 µM reaching or exceeding 30%?
OUTPUT: met

INPUT: In plain terms: is recorded cytotoxicity at 1000 µM at least 30% for CCCCOC(=O)C1CCC(=O)N1C(O)C(C)=O (stereo not shown) ?
OUTPUT: met

====

# Tested on: 293
# Test Method Notes: MTT cytotoxicity assay, 293 kidney
# Type: cell-based
# Condition Info: Homo sapiens, HEK293, 24 h, read-out: ED50 values of cytotoxicity
This section presents compounds with their documented pIC50 values.
Hey, just a heads up that pIC50 is the negative log base 10 of the concentration in molar.

CC(=O)C(O)N1C(=O)CCC1C(=O)OCc1ccccc1 (stereo not drawn)
2.70
CCCCOC(=O)C1CCC(=O)N1C(O)C(C)=O (stereo not drawn)
2.70
CCCCOC(=O)C1CCC(=O)N1C(OC(C)=O)C(C)=O (stereo not drawn)
2.72
COC(=O)C1CCC(=O)N1C(OC(C)=O)C(C)=O (stereo not drawn)
2.85
CCOC(=O)C1CCC(=O)N1C(OC(C)=O)C(C)=O (stereo not drawn)
2.54

Now take the following compound into account.
INPUT: Please give the measured pIC50 for this compound: CCOC(=O)C1CCC(=O)N1C(O)C(C)=O (stereo not drawn)
OUTPUT: 2.51

====

Reported IC50 values for a set of molecules
# Tested on: L132
# Test Method Notes: MTT cytotoxicity assay, L132 lung
# Format: cell-based
# Condition Info: Homo sapiens, 24 h, read-out: ED50 values of cytotoxicity
Report the value in mM with no unit label.

CCCCOC(=O)C1CCC(=O)N1C(O)C(C)=O (centres unmarked)
1.9
CCCCOC(=O)C1CCC(=O)N1C(OC(C)=O)C(C)=O (centres unmarked)
3.6

INPUT: Quick one: IC50 for CC(=O)C(O)N1C(=O)CCC1C(=O)OCc1ccccc1 (centres unmarked) ?
OUTPUT: 4.6

====

// reported cytotoxicity at 1000 µM per item
# Test system: DU145
# Test Method Notes: MTT cytotoxicity assay, DU145 prostate
# Format: cell-based
# Condition Info: Homo sapiens, DU-145, 1.0 mM, read-out: Percent cytotoxicity
Write down the numeric answer in % and omit the unit.

CCOC(=O)C1CCC(=O)N1C(OC(C)=O)C(C)=O (stereo not shown) [MGC-8]
43
CC(=O)C(O)N1C(=O)CCC1C(=O)OCc1ccccc1 (stereo not shown) [MGC-3]
29.4
CCCCOC(=O)C1CCC(=O)N1C(O)C(C)=O (stereo not shown) [MGC-2]
43.9

INPUT: // query cytotoxicity at 1000 µM value for entry COC(=O)C1CCC(=O)N1C(OC(C)=O)C(C)=O (stereo not shown) [MGC-4]
OUTPUT: 28.9

INPUT: Can you share its cytotoxicity at 1000 µM? I mean this molecule: CCCCOC(=O)C1CCC(=O)N1C(OC(C)=O)C(C)=O (stereo not shown) [MGC-5]
OUTPUT: 27.9

INPUT: Recorded cytotoxicity at 1000 µM of CCOC(=O)C1CCC(=O)N1C(O)C(C)=O (stereo not shown) [MGC-7] , please.
OUTPUT: 56

INPUT: Need cytotoxicity at 1000 µM of CC(=O)OC(C(C)=O)N1C(=O)CCC1C(=O)OCc1ccccc1 (stereo not shown) [MGC-6] , thanks.
OUTPUT: 37.8

====

# System: U87MG
# Test Method Notes: MTT cytotoxicity assay, U87MG glioblastoma
# Type: cell-based
# Condition Info: Homo sapiens, U-87 MG, 24 h, read-out: ED50 values of cytotoxicity
# Description: Briefly, a […] MTT cytotoxicity assay was performed, which is based on the principle of uptake of MTT (3-(4,5-dimethylthiazol-2-yl)-2,5-diphenyl tetrazolium bromide), a tetrazolium salt, by the metabolically active cells where it is metabolized by active mitochondria into a blue colored formazan product that is read spectrophoto-metrically. […] After incubating for one hour, the plate was read spectrophotometrically at 540 nm and the percentage cytotoxicity calculated.
Reported pIC50 values follow for various compounds
Lab note — pIC50 values are minus log10 of concentrations in M.

Reference set, count: 3
CCCCOC(=O)C1CCC(=O)N1C(OC(C)=O)C(C)=O (centres unmarked)
2.47
CCOC(=O)C1CCC(=O)N1C(O)C(C)=O (centres unmarked)
2.74
COC(=O)C1CCC(=O)N1C(OC(C)=O)C(C)=O (centres unmarked)
2.62

INPUT: Give its pIC50 value. Item: CCCCOC(=O)C1CCC(=O)N1C(O)C(C)=O (centres unmarked)
OUTPUT: 2.50
